- targetUnderTest: T1, 인간 OX40L 단백질 (OX40L-his; ACROBiosystems Cat# OXL-H52Q8) (human, UniProt P23510 51-183)
- T1 sequence: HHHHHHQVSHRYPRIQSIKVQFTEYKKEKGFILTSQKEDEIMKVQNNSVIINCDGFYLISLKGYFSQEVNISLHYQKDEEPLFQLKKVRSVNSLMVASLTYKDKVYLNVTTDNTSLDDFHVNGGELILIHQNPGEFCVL
- assayInfo: cell-based or functional assay
reportedMetric: IC50 (μg/mL), OX40L blockade assay (µg/mL)
Give a bare numeral; the unit µg/mL is implied.

These recorded examples may help you get a feel for the data.
| binder | IC50 (μg/mL), OX40L blockade assay [µg/mL] |
| --- | --- |
| reference 항-OX40L 항체 O4L (oxelumab VH/VL) (antibody, human IgG4 S228P, kappa, V domains shown) VH: EVQLLESGGGLVQPGGSLRLSCAASGFTFNSYAMSWVRQAPGKGLEWVSIISGSGGFTYYADSVKGRFTISRDNSRTTLYLQMNSLRAEDTAVYYCAKDRLVAPGTFDYWGQGALVTVSS VL: DIQMTQSPSSLSASVGDRVTITCRASQGISSWLAWYQQKPEKAPKSLIYAASSLQSGVPSRFSGSGSGTDFTLTISSLQPEDFATYYCQQYNSYPYTFGQGTKLEIKR | 0.293 |
| 항 OX40L 항체 21G07 (antibody, human IgG4 S228P, kappa, V domains shown) VH: QVQLQQSGAELVKPGASVKLSCKASGYTFTNYWMQWVKQRPGQGLEWIGEIDPSDGRTNYNEKFKNKATLTVDRSSSTAYIKLSSLTSEDSAVYYCAREVSLRSMDYWGQGTSVTVSS VL: DIVLTQSPLSLPVSLGDQASISCRSSQSLVHSNGNTYLHWYLQKPGQSPKLLIYKVSNRFSGVPDRFSGSGSGTDFTLKISRVEAEDLGVYFCSQSTHVPFTFGSGTKLEIKR | 0.128 |

Query binder follows.
Query (binder): 항 OX40L 항체 Hu3F07 (antibody, human IgG4 S228P, kappa, V domains shown) VH: QVQLVQSGAEVKKPGASVKVSCKASGFTFPDYWMHWVRQAPGQGLEWMGEIDPPNGRTNYNEKFKSRVTMTRDTSISTAYMELSRLRSDDTAVYYCARGIYYVDYWGQGTTVTVSS VL: DIVMTQSPLSLPVTLGEPASISCRSSQSLVHSNGNTYLHWYLQKPGQSPQLLIYKVSNRFSGVPDRFSGSGSGTDFTLKISRVEAEDVGVYYCSQSTHVPPTFGGGTKLEIKR ; field requested: IC50 (μg/mL), OX40L blockade assay 0.03
